Parameter: shrunken log2 fold change. Scope: all listed entries.
system: Escherichia coli TOP10; assay: shrunken log2 fold change of peptide-encoding DNA abundance (4.5 h post-induction vs induction); higher = less antimicrobial activity (less host growth inhibition); conditions: time post-induction: 4.5 h; library: site-saturation at positions 5, 18, 19, 20
Write no unit; give the number alone.

**Query** Field request: shrunken log2 fold change | item: RRIRWRPPRLPRPRPRPLRDPRP
**Result** 0.655

====

system: Escherichia coli TOP10; test: shrunken log2 fold change of peptide-encoding DNA abundance (4.5 h post-induction vs induction); higher = less antimicrobial activity (less host growth inhibition); conditions: time post-induction: 4.5 h; library: site-saturation at positions 5, 18, 19, 20
experimentalEndpoint: shrunken log2 fold change
Write no unit; give the number alone.

These solved cases illustrate the format of a correct answer.
INSERT INTO measurements (sequencecontent, experimentalendpoint, result) VALUES
  ('RRIRARPPRLPRPRPRPYHWPRP', 'shrunken log2 fold change', -0.0767),
  ('RRIRLRPPRLPRPRPRPIVPPRP', 'shrunken log2 fold change', 0.0358),
  ('RRIRARPPRLPRPRPRPKFTPRP', 'shrunken log2 fold change', 0.00836),
  ('RRIRVRPPRLPRPRPRPPHCPRP', 'shrunken log2 fold change', 0.178),
  ('RRIRTRPPRLPRPRPRPDPHPRP', 'shrunken log2 fold change', -0.00783);

**Query** Field request: shrunken log2 fold change | item: RRIRQRPPRLPRPRPRPDNWPRP
**Result** -0.117

**Query** Field request: shrunken log2 fold change | item: RRIRLRPPRLPRPRPRPFDPPRP
**Result** -0.352

**Query** Field request: shrunken log2 fold change | item: RRIRQRPPRLPRPRPRPWIVPRP
**Result** -0.0927

====

tested on: Escherichia coli TOP10; assay: shrunken log2 fold change of peptide-encoding DNA abundance (4.5 h post-induction vs induction); higher = less antimicrobial activity (less host growth inhibition); conditions: time post-induction: 4.5 h; library: site-saturation at positions 5, 18, 19, 20
Parameter: shrunken log2 fold change. Scope: all listed entries.
Write no unit; give the number alone.

These solved cases illustrate the format of a correct answer.
INSERT INTO results (sequencecontent, result) VALUES
  ('RRIRSRPPRLPRPRPRPHKVPRP', -0.259),
  ('RRIRIRPPRLPRPRPRPATSPRP', -0.273),
  ('RRIRHRPPRLPRPRPRPNTAPRP', -0.246),
  ('RRIRGRPPRLPRPRPRPDSQPRP', 0.223);

**Query** Request - read-out shrunken log2 fold change | tested on Escherichia coli TOP10 | sequence RRIRWRPPRLPRPRPRPNRAPRP
**Result** 0.0222

**Query** Request - read-out shrunken log2 fold change | tested on Escherichia coli TOP10 | sequence RRIRTRPPRLPRPRPRPVAMPRP
**Result** -0.0639

**Query** Request - read-out shrunken log2 fold change | tested on Escherichia coli TOP10 | sequence RRIRARPPRLPRPRPRPAGDPRP
**Result** 1.01

**Query** Request - read-out shrunken log2 fold change | tested on Escherichia coli TOP10 | sequence RRIRQRPPRLPRPRPRPPYHPRP
**Result** -0.208

**Query** Request - read-out shrunken log2 fold change | tested on Escherichia coli TOP10 | sequence RRIRKRPPRLPRPRPRPHAFPRP
**Result** 0.106

**Query** Request - read-out shrunken log2 fold change | tested on Escherichia coli TOP10 | sequence RRIRFRPPRLPRPRPRPTWHPRP
**Result** -0.0992

**Query** Request - read-out shrunken log2 fold change | tested on Escherichia coli TOP10 | sequence RRIRPRPPRLPRPRPRPCYQPRP
**Result** -0.565

**Query** Request - read-out shrunken log2 fold change | tested on Escherichia coli TOP10 | sequence RRIRDRPPRLPRPRPRPYFEPRP
**Result** -0.3

**Query** Request - read-out shrunken log2 fold change | tested on Escherichia coli TOP10 | sequence RRIRNRPPRLPRPRPRPTVDPRP
**Result** 0.0566

**Query** Request - read-out shrunken log2 fold change | tested on Escherichia coli TOP10 | sequence RRIRVRPPRLPRPRPRPKLVPRP
**Result** 0.194

====

tested on: Escherichia coli TOP10; assay: shrunken log2 fold change of peptide-encoding DNA abundance (4.5 h post-induction vs induction); higher = less antimicrobial activity (less host growth inhibition); conditions: time post-induction: 4.5 h; library: site-saturation at positions 5, 18, 19, 20
experimentalEndpoint: shrunken log2 fold change
Write no unit; give the number alone.

These solved cases illustrate the format of a correct answer.
INSERT INTO measurements (sequencecontent, targetentity, result) VALUES
  ('RRIRVRPPRLPRPRPRPSEKPRP', 'Escherichia coli TOP10', 0.268),
  ('RRIRMRPPRLPRPRPRPADHPRP', 'Escherichia coli TOP10', 0.173),
  ('RRIRTRPPRLPRPRPRPYPYPRP', 'Escherichia coli TOP10', -0.0787),
  ('RRIRIRPPRLPRPRPRPYSKPRP', 'Escherichia coli TOP10', -1.2);

We next turn to a different sequence, shown below.
**Query** Field request: shrunken log2 fold change | item: RRIRPRPPRLPRPRPRPESQPRP
**Result** -0.0975

====

test system: Escherichia coli TOP10; assay: shrunken log2 fold change of peptide-encoding DNA abundance (4.5 h post-induction vs induction); higher = less antimicrobial activity (less host growth inhibition); conditions: time post-induction: 4.5 h; library: site-saturation at positions 5, 18, 19, 20;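 note: peptides expressed intracellularly from a pBAD plasmid library in pooled LB shake-flask culture, induced with 0.3% L-arabinose, DNA abundance read by NGS, three biological replicates, DESeq2 with apeglm shrinkage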
experimentalEndpoint: shrunken log2 fold change
Write no unit; give the number alone.

These solved cases illustrate the format of a correct answer.
INSERT INTO measurements (sequencecontent, experimentalendpoint, result) VALUES
  ('RRIRSRPPRLPRPRPRPHNYPRP', 'shrunken log2 fold change', -0.372),
  ('RRIRIRPPRLPRPRPRPYHEPRP', 'shrunken log2 fold change', -0.216),
  ('RRIRARPPRLPRPRPRPDDKPRP', 'shrunken log2 fold change', -0.112);

**Query** Field request: shrunken log2 fold change | item: RRIRLRPPRLPRPRPRPKVCPRP
**Result** 0.0264

**Query** Field request: shrunken log2 fold change | item: RRIRCRPPRLPRPRPRPCHQPRP
**Result** 0.0175

**Query** Field request: shrunken log2 fold change | item: RRIRKRPPRLPRPRPRPEQSPRP
**Result** 0.94

**Query** Field request: shrunken log2 fold change | item: RRIRARPPRLPRPRPRPNNKPRP
**Result** -0.29

**Query** Field request: shrunken log2 fold change | item: RRIRCRPPRLPRPRPRPPTQPRP
**Result** 0.515

**Query** Field request: shrunken log2 fold change | item: RRIRNRPPRLPRPRPRPLNDPRP
**Result** -0.0316

**Query** Field request: shrunken log2 fold change | item: RRIRLRPPRLPRPRPRPAPRPRP
**Result** 0.816

**Query** Field request: shrunken log2 fold change | item: RRIRGRPPRLPRPRPRPMNPPRP
**Result** 0.217

**Query** Field request: shrunken log2 fold change | item: RRIRERPPRLPRPRPRPEMAPRP
**Result** 0.414

**Query** Field request: shrunken log2 fold change | item: RRIRERPPRLPRPRPRPIWEPRP
**Result** 0.0512

**Query** Field request: shrunken log2 fold change | item: RRIRCRPPRLPRPRPRPAGGPRP
**Result** 0.489

**Query** Field request: shrunken log2 fold change | item: RRIRQRPPRLPRPRPRPEAKPRP
**Result** 0.0428

**Query** Field request: shrunken log2 fold change | item: RRIRGRPPRLPRPRPRPPPCPRP
**Result** 1.16

**Query** Field request: shrunken log2 fold change | item: RRIRSRPPRLPRPRPRPSNWPRP
**Result** -0.237

**Query** Field request: shrunken log2 fold change | item: RRIRSRPPRLPRPRPRPKDHPRP
**Result** -0.131

**Query** Field request: shrunken log2 fold change | item: RRIRIRPPRLPRPRPRPGKCPRP
**Result** -0.215

**Query** Field request: shrunken log2 fold change | item: RRIRSRPPRLPRPRPRPGARPRP
**Result** 0.492

**Query** Field request: shrunken log2 fold change | item: RRIRRRPPRLPRPRPRPVAQPRP
**Result** 0.324

**Query** Field request: shrunken log2 fold change | item: RRIRTRPPRLPRPRPRPQPCPRP
**Result** -0.0212

**Query** Field request: shrunken log2 fold change | item: RRIRERPPRLPRPRPRPTMSPRP
**Result** -0.217

**Query** Field request: shrunken log2 fold change | item: RRIRARPPRLPRPRPRPAWDPRP
**Result** 0.858
